Assay: Unbound plasma drug concentration in HF/STZ mice
Format: in vivo
Conditions: C57BL/6j, mouse, 100 mg/kg oral, 1-hour post drug administration, by MS, read-out: free drug level in plasma
reported-endpoint: concentration at 1 h
// unit must come after the numeric part

Reported concentration at 1 h, compound COc1ccc(F)c(-c2ccc(COc3cccc([C@@H](CC(=O)O)C4CC4)c3)cc2C2=CCCC2(C)C)c1 [AM-1638] : ____
363 nM

Reported concentration at 1 h, compound CC#C[C@@H](CC(=O)O)c1ccc(OCc2cccc(-c3ccc(C(F)(F)F)cc3)c2)cc1 [AMG 837, reference compound] : ____
826 nM
